biological target: human FXR (Homo sapiens, UniProt Q96RI1); construct: expressed in transfected cells; host or cells: HeLa; assay: Full-length FXR transactivation (reporter gene) assay in HeLa cells; type: cell-based; conditions: HeLa, read-out: hFXR: max. rel. act.
Sequence (Q96RI1 whole entry): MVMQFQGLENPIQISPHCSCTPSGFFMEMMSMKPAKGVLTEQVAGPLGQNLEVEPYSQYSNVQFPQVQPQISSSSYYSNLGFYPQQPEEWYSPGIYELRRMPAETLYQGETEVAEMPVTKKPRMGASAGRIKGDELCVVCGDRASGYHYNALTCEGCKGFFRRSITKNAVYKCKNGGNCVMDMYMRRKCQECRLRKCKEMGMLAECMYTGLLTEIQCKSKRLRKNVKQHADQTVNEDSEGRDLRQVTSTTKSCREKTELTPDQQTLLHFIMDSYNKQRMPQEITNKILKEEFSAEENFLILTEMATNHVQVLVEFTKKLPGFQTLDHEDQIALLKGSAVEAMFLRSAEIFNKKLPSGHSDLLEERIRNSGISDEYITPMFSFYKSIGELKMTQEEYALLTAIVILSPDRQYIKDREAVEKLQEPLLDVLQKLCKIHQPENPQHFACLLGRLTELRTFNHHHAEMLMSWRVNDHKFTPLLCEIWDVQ
Sequence (P19793 whole entry partner): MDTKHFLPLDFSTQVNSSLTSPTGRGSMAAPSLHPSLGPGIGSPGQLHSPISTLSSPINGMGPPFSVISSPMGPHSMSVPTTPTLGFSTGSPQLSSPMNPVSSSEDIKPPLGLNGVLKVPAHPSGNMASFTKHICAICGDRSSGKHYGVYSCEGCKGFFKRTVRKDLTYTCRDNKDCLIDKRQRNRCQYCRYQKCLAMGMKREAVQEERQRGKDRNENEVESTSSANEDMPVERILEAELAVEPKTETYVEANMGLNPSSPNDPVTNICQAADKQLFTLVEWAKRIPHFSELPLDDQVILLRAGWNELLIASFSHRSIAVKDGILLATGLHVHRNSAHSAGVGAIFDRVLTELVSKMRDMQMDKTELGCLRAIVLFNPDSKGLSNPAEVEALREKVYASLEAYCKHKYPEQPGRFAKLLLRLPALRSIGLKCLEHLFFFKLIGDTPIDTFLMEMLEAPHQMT
Kindly supply the reported Emax values for the records listed here.
Answers are plain numbers, in %.

| molecule | observation.type | quantitative.readout |
| --- | --- | --- |
| CCc1ccc(C(=O)Nc2ccc(C)c(Nc3nccc(-c4cccnc4)n3)c2)cc1.CS(=O)(=O)O.CS(=O)(=O)O.O | Emax | 7.9 |
| Cc1ccc(NC(=O)c2ccc(C(C)(C)C)cc2)cc1Nc1nccc(-c2cccnc2)n1 | Emax | 8.6 |
| CS(=O)(=O)O.CS(=O)(=O)O.CS(=O)(=O)O.CS(=O)(=O)O.Cc1ccc(NC(=O)c2ccccc2)cc1Nc1nccc(-c2cccnc2)n1.Cc1ccc(NC(=O)c2ccccc2)cc1Nc1nccc(-c2cccnc2)n1.O | Emax | 9 |

Hi team, please reply with Emax for each item in this list.
1. Cc1ccc(NC(=O)c2ccncc2)cc1Nc1nccc(-c2cccnc2)n1
2. Cc1ccc(C(=O)Nc2ccc(C)c(Nc3nccc(-c4cccnc4)n3)c2)cc1
3. Cc1ccc(N)cc1Nc1nccc(-c2cccnc2)n1 [compound 17, reference compound]

OUT:
1. 11.7
2. 8.1
3. 9.2

Hey, can you go through the list below and give me Emax for every item?
1. CS(=O)(=O)O.CS(=O)(=O)O.CS(=O)(=O)O.CS(=O)(=O)O.Cc1ccc(NC(=O)c2ccc3ccccc3c2)cc1Nc1nccc(-c2cccnc2)n1.Cc1ccc(NC(=O)c2ccc3ccccc3c2)cc1Nc1nccc(-c2cccnc2)n1.O.O.O
2. CS(=O)(=O)O.CS(=O)(=O)O.CS(=O)(=O)O.CS(=O)(=O)O.Cc1ccc(NC(=O)c2ccc(Cl)cc2)cc1Nc1nccc(-c2cccnc2)n1.Cc1ccc(NC(=O)c2ccc(Cl)cc2)cc1Nc1nccc(-c2cccnc2)n1.O.O.O
3. Cc1ccc(NC(=O)c2ccc(-c3ccccc3)cc2)cc1Nc1nccc(-c2cccnc2)n1

OUT:
[7.1, 8.4, 7.1]
